system: PPARg:RXRa (NR concentration 180 nM, RXRa partner concentration 90 nM); experiment: PBM binding z-score (relative to random genomic background probes); higher = stronger binding; sequences stand for … in GC…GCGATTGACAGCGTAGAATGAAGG
# PBM binding z-score per entry

itemSequence: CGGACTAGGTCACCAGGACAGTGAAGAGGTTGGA
PBM binding z-score: 8.1
--
itemSequence: ACTATCAGGCCAAGGGTCACTCAAGATTAGTCCG
PBM binding z-score: 7.66
--
itemSequence: AGTCAAAGTTCAGGACGAGGTACCGTAAAGCACG
PBM binding z-score: 4.19
--
itemSequence: CCTTACGGGTCAGGGTTATAGCACGGGTGGTACG
PBM binding z-score: 2.72
--
itemSequence: CTTTACGGGTCAAGGTTATAGCACGGGTGGTACG
PBM binding z-score: 5.26
--
itemSequence: CGAACTAGGTCAAAGGAGAGTGAAAGGCGACGTA
PBM binding z-score: 8.9
--
itemSequence: GCTCGGGGGACAAGGTCAGAGCTTTGTCCGTAGA
PBM binding z-score: 3.61
--
itemSequence: GATACGGGGTCAGCTAGAGGCCAGAGTATGGAAA
PBM binding z-score: 7.74
--
itemSequence: CGAACTAAGTCACCAGGACAGTGAAGAGGTTGGA
PBM binding z-score: 0.494
--
itemSequence: CCGAGTAGCTTACGAGGGGGCATTCAGTGCGAAT
PBM binding z-score: -0.443
--
itemSequence: CCTCGGAGGACAGAAGGTCAGATCTGTCCGCTTT
PBM binding z-score: 0.155
--
itemSequence: CAAACTAGGTCACCGGAAAGTCAAAGTCCGCATG
PBM binding z-score: 9.52
--
itemSequence: CTATGTAGGTTAAGGGGTTCATTCAGTTTGAAAG
PBM binding z-score: 7.11
--
itemSequence: TCGAGTAGGTTACGGGGGCTTTCAGGGATGAAGA
PBM binding z-score: 3.47
--
itemSequence: CGAACTAGGTCAAAGGACAGTGAGAGGCGACGTA
PBM binding z-score: 10.3
--
itemSequence: TAGCCTAGGTCAAGCGGGCCAGTATAGTGTCGGC
PBM binding z-score: 2.12
--
itemSequence: GCTGCTAGGTCAGGTTGGTCTGCTAACGGGTACG
PBM binding z-score: 0.225
--
itemSequence: CGAACTATGTCAAGGACAGTGAATCTCCGCACGC
PBM binding z-score: 0.856
--
itemSequence: TCGAGTAGGTTACGGGAGCATTCAGGGATGAAGA
PBM binding z-score: 1.59
--
itemSequence: ATATGTAGGTTAGGGTCTTTCAGAAAGTAGGGAA
PBM binding z-score: 4.93
--
itemSequence: CAAACTAGGTCACCGTAAGGTCAAAGTCCGCATG
PBM binding z-score: 9.41
--
itemSequence: CCTACTGGGCCATACAGAGGTCATTGATCATATG
PBM binding z-score: 2.98
--
itemSequence: TCGAGTAGGTTACGGGGGCATTCATGGATGAAGA
PBM binding z-score: 6.11
--
itemSequence: CCTAGCAGGCCACGGTCACTCAAGCATTTCGCTT
PBM binding z-score: 0.0164
--
itemSequence: CTAAGTAGGTTAAGGGGGTCATTCAGTTTGAAAG
PBM binding z-score: 8.37
--
itemSequence: CAAACTAGGTCAAAGGACAGTGAAAGGCGACGTA
PBM binding z-score: 10.3
--
itemSequence: CGAACTAGGTCACCAGGACATTGAAGAGGTTGGA
PBM binding z-score: 8.44
--
itemSequence: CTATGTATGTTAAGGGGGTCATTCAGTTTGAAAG
PBM binding z-score: 5.43
--
itemSequence: TATACAGGATCAAAGGCCAGAGTACGAATGTCGA
PBM binding z-score: 2.37
--
itemSequence: ATCGAACGGTCGACGAGGTGAGTATACACCGTTT
PBM binding z-score: 0.937
--
itemSequence: CCTACTGGGCCGAGGTCATTGATCAGTCAAAGCA
PBM binding z-score: 3.02
--
itemSequence: ATATGTAGGTTAGTGTCATTCAGAAAGTAGGGAA
PBM binding z-score: 4.15
--
itemSequence: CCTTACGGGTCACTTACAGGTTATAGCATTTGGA
PBM binding z-score: 3.07
--
itemSequence: CGAACTCGGTCACCAGGACAGTGAAGAGGTTGGA
PBM binding z-score: 1.91
--
itemSequence: CCTACTGGGTCATTCAGAGGTCATTGATCATATG
PBM binding z-score: 6.55
--
itemSequence: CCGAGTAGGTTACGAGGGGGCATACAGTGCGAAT
PBM binding z-score: 2.73
--
itemSequence: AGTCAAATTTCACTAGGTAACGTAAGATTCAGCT
PBM binding z-score: 0.5
--
itemSequence: CAAAATAGGTCAAGGTCAAAGTCGGTTTGTGCCA
PBM binding z-score: 8.81
--
itemSequence: ATGGAAAGGTCGTGAGGTGAGTATACAGAAAGGC
PBM binding z-score: 4.74
--
itemSequence: CGAACTTGGTCACCAGGACAGTGAAGAGGTTGGA
PBM binding z-score: 0.758
--
itemSequence: CTATGTAGGTTAAGAGGGTCATTCAGTTTGAAAG
PBM binding z-score: 5.88

---

test system: LXRa homodimer (NR concentration 270 nM); assay: PBM binding z-score (relative to random genomic background probes); higher = stronger binding; sequences stand for … in GC…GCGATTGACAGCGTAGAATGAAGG
# PBM binding z-score per entry
resultType: PBM binding z-score

itemSequence: TCGAGTAGGTTACGGGGGCAATCAGGGATGAAGA
testResult: 0.238
--
itemSequence: GCTTACGGGTCAAAAGTTATAGCATGAATAGAAT
testResult: 0.0533
--
itemSequence: CCGAGTAGGTTACGAGGGAGCATTCAGTGCGAAT
testResult: -0.145
--
itemSequence: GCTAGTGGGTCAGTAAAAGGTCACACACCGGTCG
testResult: 4.65
--
itemSequence: CGAACCAGGTCACCAGGACAGTGAAGAGGTTGGA
testResult: 0.19
--
itemSequence: TCTCGGAGGACACGAAGGTCAGCGCTTTCCAGAG
testResult: 0.379
--
itemSequence: CGTCCAAGGTCAAGCTCAGTGAAAGAGACTCGAA
testResult: 0.428
--
itemSequence: TCGAGTAGGTTACGGGGGCATTCTGGGATGAAGA
testResult: 0.493
--
itemSequence: CTAACTAGGTCACGAAAGGTCAAAGTCGAATGAC
testResult: 7.7
--
itemSequence: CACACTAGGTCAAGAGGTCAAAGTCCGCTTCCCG
testResult: 7.43
--
itemSequence: CGAACTAGGTCAAAGGTCAGTGAAAGGCGACGTA
testResult: 2.09
--
itemSequence: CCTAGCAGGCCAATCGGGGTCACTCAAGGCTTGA
testResult: 0.394
--
itemSequence: CGAACTACGTCAAAGGACAGTGAAAGGCGACGTA
testResult: -0.3
--
itemSequence: TAGCCTAGGTCATGGGCCTGTATACCACGCGAAC
testResult: 0.196
--
itemSequence: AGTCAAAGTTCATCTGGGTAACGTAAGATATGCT
testResult: 5.7
--
itemSequence: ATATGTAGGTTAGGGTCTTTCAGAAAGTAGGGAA
testResult: 0.422
--
itemSequence: ACTAGTTGGTAAGCTGAGGTCACACACAATTCGG
testResult: 2.68
--
itemSequence: ATCGAAAAGTCGAAGGTGAGTATACCCACCCGAA
testResult: -0.293
--
itemSequence: ATATGTAGGTTAGCGGGGGTCATTCAGACTAGGC
testResult: 3.96
--
itemSequence: CGAACAAGGTCAAAGGACAGTGAAAGGCGACGTA
testResult: 0.368
--
itemSequence: CGAACTAGGTCACCGGGACAGTGAAGAGGTTGGA
testResult: -0.0882

---

test system: RARa:RXR (NR concentration 270 nM, RXRa partner concentration 90 nM); test: PBM binding z-score (relative to random genomic background probes); higher = stronger binding; sequences stand for … in GC…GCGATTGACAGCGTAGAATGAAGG
So basically every entry gets a class from its PBM binding z-score, ranges being bucket 1 = under 2, bucket 2 = from 2 up to 4, bucket 3 = 4 and over

itemSequence: CTACGTAGGTTAAGGGGGTCATTCAGTTTGAAAG
category: bucket 3
//
itemSequence: AGTCAAAGTTCATCAAGGTAACGTAAGATATGCT
category: bucket 3
//
itemSequence: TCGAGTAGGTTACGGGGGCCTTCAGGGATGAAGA
category: bucket 1
//
itemSequence: CGAACTAGGTCAAAGGACAGTCAAAGGCGACGTA
category: bucket 2
//
itemSequence: ATATGTAGGTTAAGGTCATTCAGAAAGTAGGGAA
category: bucket 3
//
itemSequence: AGTCAAAGGTCACTAGGTAACGTAAGATTCAGCT
category: bucket 3
//
itemSequence: CCGAGTAGGGTACGAGGGGGCATTCAGTGCGAAT
category: bucket 1
//
itemSequence: CTCTGTAGGTTAAGGGGGTCATTCAGTTTGAAAG
category: bucket 3
//
itemSequence: CGAACTAGGTTACCAGGACAGTGAAGAGGTTGGA
category: bucket 1
//
itemSequence: CGAACTAGGTCAGAACAGGACATTGAAGGATGAT
category: bucket 1
//
itemSequence: TCGAGGAGGTTACGGGGGCATTCAGGGATGAAGA
category: bucket 3
//
itemSequence: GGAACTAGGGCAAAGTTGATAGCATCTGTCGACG
category: bucket 1
//
itemSequence: CTATGAAGGTTAAGGGGGTCATTCAGTTTGAAAG
category: bucket 3
//
itemSequence: ATCGAAAGGTCGAAAGTGAGTATACCCACCCGAA
category: bucket 2
//
itemSequence: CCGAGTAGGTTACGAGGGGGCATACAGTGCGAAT
category: bucket 2
//
itemSequence: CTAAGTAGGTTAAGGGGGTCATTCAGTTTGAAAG
category: bucket 3
//
itemSequence: TCATATAGGTGAAAGGTGAAAGTCGGTGTGGTAA
category: bucket 3
